Assay: folding enthalpy; higher = less favourable; fluorescence melt of hairpins on a sequencing array, two-state fit
Conditions: sodium 0.088 M
Parameter threshold = -20 kcal/mol. Response is 1.0 when folding enthalpy meets or exceeds it, else 0.0.

{"sequence-record": "GGAAATGGAAACATTTTC (.(((((....))))).)", "discrete-label": 0.0}
{"sequence-record": "GCTTGCGAAAGCAACAGC ((((((....)))..)))", "discrete-label": 1.0}
{"sequence-record": "GTTGCCGAAAGGCATAAC ((((((....)))..)))", "discrete-label": 1.0}
{"sequence-record": "GCGGGGACCCGC ((((....))))", "discrete-label": 0.0}
{"sequence-record": "GGGTCCGAAAGGAGACCC ((((((....)))..)))", "discrete-label": 0.0}
{"sequence-record": "GCCCTGCGAAAGCAAAGC ((..(((....)))..))", "discrete-label": 1.0}
{"sequence-record": "GCCACCGGAAACGGTGAC (.(((((....))))).)", "discrete-label": 1.0}

Next:
Exam item: Could you verify whether the entry GTGTATGGAAACATATAC ((.((((....)))).)) shows folding enthalpy of no less than -20 kcal/mol?
Marked response: 0.0
